B1: HDV Ribozyme (parent)
chain: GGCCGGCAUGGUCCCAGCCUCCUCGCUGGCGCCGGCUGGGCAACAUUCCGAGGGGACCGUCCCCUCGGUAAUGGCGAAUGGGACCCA

# Variants of: B1
# METHOD_DESCRIPTION: self-cleavage, relative activity (ratio to wild type); higher = more cleavage; co-transcriptional
MEASURE_NAME: self-cleavage
Give your answer as a number; write no unit.

[[record]]
mutation_id = "A42C G74C"
measured_number = 0.166

[[record]]
mutation_id = "G11U A71C"
measured_number = 0.405

[[record]]
mutation_id = "U46A G67U"
measured_number = 0.789

[[record]]
mutation_id = "G6C U47G"
measured_number = 0.158

[[record]]
mutation_id = "U60C G80U"
measured_number = 0.157


Record A45U A71G . Reported self-cleavage: 0.872
